Each recorded value in this set is attributed to paper PMC7397269.

reported metric: melting point

Study these solved cases before continuing.
compound | melting point
Cc1ccc2oc(=O)c3c(c2c1)OC(/N=C/N(C)C)=C(C#N)C3c1ccc([N+](=O)[O-])cc1 (racemic) [4a] | 279 to 281 °C
COc1cc(/C=N/C2=C(C#N)C(c3ccco3)c3c(c4cc(C)ccc4oc3=O)O2)cc(OC)c1OC (racemic) [5d] | 248 to 250 °C
O=c1oc2ccc(Cl)cc2c(O)c1S(=O)(=O)Nc1ccc(S(=O)(=O)Nc2ncccn2)cc1 [7c] | 230 to 232 °C
O=C(/C=C/c1ccc(Cl)cc1)c1ccc(NS(=O)(=O)c2c(O)c3cc(Cl)ccc3oc2=O)cc1 [9c] | 157 to 159 °C
Cc1ccc2oc(=O)c(S(=O)(=O)Nc3ccc(C(=O)/C=C/c4ccc(Cl)cc4)cc3)c(O)c2c1 [9d] | 141 to 143 °C

Fill in: melting point of Cc1ccc2oc(=O)c3c(c2c1)OC(N)=C(C(N)=O)C3c1ccco1 (racemic) [3b] is ___
202 to 204 °C

Now consider O=c1oc2ccc(Cl)cc2c(O)c1S(=O)(=O)Nc1ccc(S(=O)(=O)Nc2nccs2)cc1 [7e] and answer again.
215 to 217 °C

Now consider Cc1ccc2oc(=O)c3c(c2c1)OC(/N=C/N(C)C)=C(C#N)C3c1ccco1 (racemic) [4b] and answer again.
273 to 275 °C

---

IC50 overview
assay: DPPH antioxidant assay (radical scavenging); assay type: biochemical; conditions: mean ± SD (n = 3)
Response body: numeric value in µg/mL, unit text excluded.

Fill in: IC50 of Cc1ccc2oc(=O)c3c(c2c1)OC(N)=C(C(N)=O)C3c1ccco1 (racemic) is ___
48.38

Now consider NS(=O)(=O)c1ccc(NS(=O)(=O)c2c(O)c3cc(Cl)ccc3oc2=O)cc1 and answer again.
93.12

Now consider O=c1oc2ccc(Cl)cc2c(O)c1S(=O)(=O)Nc1ccc(S(=O)(=O)Nc2ncccn2)cc1 and answer again.
120.12

Now consider O=c1oc2ccc(Cl)cc2c(O)c1S(=O)(=O)Nc1ccccc1 and answer again.
14.51

---

test system: trypsin; assay: Proteinase-inhibitory activity; assay type: biochemical; conditions: 250 µg/mL; mean ± SD (n = 3)
Output True for % Inhibition (proteinase) not less than 20%; output False otherwise.

Known results for molecules:
molecule | group label
COc1cc(/C=N/C2=C(C#N)C(c3ccco3)c3c(c4cc(C)ccc4oc3=O)O2)cc(OC)c1OC (racemic) [5d] | True
O=c1oc2ccc(Cl)cc2c(O)c1S(=O)(=O)Nc1ccc(S(=O)(=O)Nc2ncccn2)cc1 [7c] | False
Cc1ccc2oc(=O)c3c(c2c1)OC(/N=C/c1ccc(Cl)cc1Cl)=C(C#N)C3c1ccc([N+](=O)[O-])cc1 (racemic) [5e] | True

Could you please find out whether Cc1ccc2oc(=O)c3c(c2c1)OC(/N=C/N(C)C)=C(C#N)C3c1ccc([N+](=O)[O-])cc1 (racemic) [4a] has % Inhibition (proteinase) that meets 20% or exceeds it?
True

Now consider COc1cc(/C=N/C2=C(C#N)C(c3ccc([N+](=O)[O-])cc3)c3c(c4cc(C)ccc4oc3=O)O2)cc(OC)c1OC (racemic) [5c] and answer again.
True

Now consider O=c1oc2ccc(Cl)cc2c(O)c1S(=O)(=O)Nc1ccc(O)cc1 [8c] and answer again.
True

Now consider Cc1ccc2oc(=O)c(S(=O)(=O)Nc3ccc(S(=O)(=O)Nc4ncccn4)cc3)c(O)c2c1 [7d] and answer again.
True

Now consider O=C(/C=C/c1ccc(Cl)cc1)c1ccc(NS(=O)(=O)c2c(O)c3cc(Cl)ccc3oc2=O)cc1 [9c] and answer again.
False

Now consider Cc1ccc2oc(=O)c3c(c2c1)OC(/N=C/N(C)C)=C(C#N)C3c1ccco1 (racemic) [4b] and answer again.
True

Now consider COc1ccc(/C=C/C(=O)c2ccc(NS(=O)(=O)c3c(O)c4cc(Cl)ccc4oc3=O)cc2)cc1 [9e] and answer again.
True
